meta.source: ChEMBL document CHEMBL6134774

test system: L929; assay: Cytotoxicity against mouse L929 cells assessed as cell viability measured after 48 hrs by MTT assay; conditions: L929, 48 h
pIC50: −log10 of the molar value.

| Compound | pIC50 |
| --- | --- |
| O=c1[nH]cc(F)c(=O)[nH]1 [FLUOROURACIL] | 4.85 |
